EC50 values, listed per item
Molecular target: PPAR-γ (Homo sapiens, UniProt P37231)
Construct: hPPARγ/LBD encoding amino acids 184-477; expressed in transfected cells; host or cells: HEK293T
Sequence (P37231 212-505): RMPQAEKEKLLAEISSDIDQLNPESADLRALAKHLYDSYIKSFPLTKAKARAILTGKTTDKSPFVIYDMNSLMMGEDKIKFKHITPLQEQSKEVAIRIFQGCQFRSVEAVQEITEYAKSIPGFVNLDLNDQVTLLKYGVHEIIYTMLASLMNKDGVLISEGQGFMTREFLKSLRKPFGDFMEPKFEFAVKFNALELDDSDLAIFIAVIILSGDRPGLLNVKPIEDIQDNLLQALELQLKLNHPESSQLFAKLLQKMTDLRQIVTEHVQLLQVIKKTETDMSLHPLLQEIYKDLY
Assay: GAL4-DBD/PPAR-LBD luciferase reporter agonist assay in HEK293T cells, PPAR-γ
Type: cell-based
Conditions: Table 9; read-out: PPAR-γ EC50
metric: EC50 (µM)

molecule: O=C(Nc1ccccc1O)C1CCN(C(=O)COc2ccc(F)cc2)CC1
rel: >
observedValue: 10

molecule: Cc1ccc(C(=O)Nc2cccc(CNCc3ccc(OC(F)(F)F)cc3)c2)cc1
rel: =
observedValue: 1.26

molecule: O=C(Nc1ccccc1O)C1CCN(C(=O)c2ccc(OCC3CCCO3)cc2)CC1 (centres unmarked)
rel: =
observedValue: 0.937

molecule: CCc1cc(C(c2cccc(OC)c2)N2CCN(CCO)CC2)c(NC(=O)c2ccccc2)s1 (centres unmarked)
rel: =
observedValue: 7.28

molecule: CCOC(=O)NC(=O)COC(=O)c1c2c(nc3ccccc13)/C(=C\c1ccc(OC)cc1)CC(C)C2 (centres unmarked)
rel: =
observedValue: 3.53

---

Biological target: PPAR-δ (Homo sapiens)
Construct: hPPARδ/LBD encoding amino acids 147-441; expressed in transfected cells; host or cells: HEK293T
Test: GAL4-DBD/PPAR-LBD luciferase reporter agonist assay in HEK293T cells, PPAR-δ
Type: cell-based
Details: Table 10
Overview of recorded EC50 for various compounds

compound: CCCOc1c(/C=C/C(=O)c2ccc(SCC(=O)O)c(OC)c2)cccc1OCC
units: µM
EC50: 8.39
--
compound: O=C(NCCCCOc1ccc(F)cc1)c1ccc([N+](=O)[O-])c(O)c1
units: µM
EC50: 7.24
--
compound: O=C(COc1ccc(C(=O)O)cc1)NC(c1ccccc1)c1ccc(Cl)cc1 (centres unmarked)
units: µM
EC50: 7.55
--
compound: O=C(OCC(=O)c1ccc(O)cc1O)c1ccc(COc2ccc3ccccc3c2)o1
units: µM
EC50: 3.7
--
compound: COCCCn1c(SCc2cccc(C(=O)O)c2)nc2sc3c(c2c1=O)CCCS3
units: µM
EC50: 7.04
--
compound: Cc1cc(C(=O)COC(=O)c2ccc(O)cc2O)c(C)n1Cc1ccc(F)cc1
units: µM
EC50: 9.48
--
compound: O=[N+]([O-])c1cc(S(=O)(=O)N2CCCC2)ccc1OCC(O)CNCc1ccc(F)cc1 (centres unmarked)
units: µM
EC50: 4.6
--
compound: COc1cc(/C=C2/S/C(=N/c3ccccc3)NC2=O)ccc1OCc1cccc(C(=O)O)c1
units: µM
EC50: 4.33

---

Target: PPAR-γ (Homo sapiens, UniProt P37231)
Construct: hPPARγ/LBD encoding amino acids 184-477; expressed in transfected cells; host or cells: HEK293T
Assay: GAL4-DBD/PPAR-LBD luciferase reporter agonist assay in HEK293T cells, PPAR-γ
Type: cell-based
Conditions: Table 10 (PPAR-δ); read-out: PPAR-δ EC50
pEC50: −log10 of the molar value.
metric: pEC50

smilesCode: Cc1cc(C(=O)COC(=O)c2ccc(O)cc2O)c(C)n1Cc1ccc(F)cc1
metric: pEC50
rel: =
observedValue: 6.00

smilesCode: COc1cc(/C=C2/S/C(=N/c3ccccc3)NC2=O)ccc1OCc1cccc(C(=O)O)c1
metric: pEC50
rel: =
observedValue: 5.01

smilesCode: CCCOc1c(/C=C/C(=O)c2ccc(SCC(=O)O)c(OC)c2)cccc1OCC
metric: pEC50
rel: =
observedValue: 5.89

smilesCode: Cc1cc(C(=O)COc2ccc(C(=O)O)cc2)c(C)n1CCC1=CCCCC1
metric: pEC50
rel: =
observedValue: 5.07

smilesCode: O=C(OCC(=O)c1ccc(O)cc1O)c1ccc(COc2ccc3ccccc3c2)o1
metric: pEC50
rel: =
observedValue: 5.42

smilesCode: COCCCn1c(SCc2cccc(C(=O)O)c2)nc2sc3c(c2c1=O)CCCS3
metric: pEC50
rel: <
observedValue: 5.00

smilesCode: COc1ccc(C(=O)/C=C/c2c(C)nn(-c3ccccc3)c2Cl)cc1CSCC(=O)O
metric: pEC50
rel: =
observedValue: 5.74

---

Target: PPAR-δ (Homo sapiens, UniProt Q03181)
Construct: hPPARδ/LBD encoding amino acids 147-441; expressed in transfected cells; host or cells: HEK293T
Sequence (Q03181 147-441): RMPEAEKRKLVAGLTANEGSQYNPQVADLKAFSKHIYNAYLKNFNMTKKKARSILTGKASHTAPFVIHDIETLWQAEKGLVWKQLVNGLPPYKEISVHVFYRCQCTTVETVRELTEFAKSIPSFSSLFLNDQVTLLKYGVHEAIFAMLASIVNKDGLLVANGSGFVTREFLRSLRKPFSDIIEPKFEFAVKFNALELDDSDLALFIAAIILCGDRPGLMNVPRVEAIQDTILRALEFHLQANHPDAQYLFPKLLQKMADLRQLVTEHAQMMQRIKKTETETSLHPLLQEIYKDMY
Experiment: GAL4-DBD/PPAR-LBD luciferase reporter agonist assay in HEK293T cells, PPAR-δ
Assay type: cell-based
Details: Table 9
pEC50: −log10 of the molar value.

molecule: COc1ccc(N2CCN(C(=O)CSc3nnc(COc4ccc(Cl)cc4C)[nH]3)CC2)cc1
pEC50: 7.74
//
molecule: CCOC(=O)NC(=O)COC(=O)c1c2c(nc3ccccc13)/C(=C\c1ccc(OC)cc1)CC(C)C2 (centres unmarked)
pEC50: 7.96
//
molecule: O=C(Nc1cccc(CNCC(c2cccs2)N2CCOCC2)c1)c1ccc(Cl)cc1 (centres unmarked)
pEC50: 7.92
//
molecule: O=C(CN1CCN(c2ccc(O)cc2)CC1)NCC1(N2CCOCC2)CCCCC1
pEC50: 8.22
//
molecule: O=C(Nc1ccccc1O)C1CCN(C(=O)COc2ccc(F)cc2)CC1
pEC50: 7.77
